# method description: BSK_SAg_Proliferation: Cell Proliferation Assessment in the BioMAP Diversity Plus: SAg Assay (AID 2283095);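 further: relative cell number as total protein by SRB absorbance in sub-confluent culture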
# condition summary: primary human HUVEC with PBMC
The source made the active and inactive calls. How the source made its calls: active means hit-call score of the fitted dose curve at least 0.9, where 1 is the maximum; inactive means score below 0.9.
Outcome codes: active, inactive

>>> df
                                  smiles  category_label
0                            CCCCCCCCCCC        inactive
1                                   NCCO        inactive
2                        CCCCN(CCCC)CCCC        inactive
3  CC(C)c1ccc(C(=O)N=C(N)N)cc1S(C)(=O)=O        inactive
4                          Cc1ccc(Cl)cc1        inactive
5          Nc1ccc2c(c1)C(=O)c1ccccc1C2=O        inactive
6                             Nc1ccccc1N        inactive
7        CNCc1cc(F)ccc1Oc1ccc(Cl)c(Cl)c1          active
